target-entity: PKC-zeta (Homo sapiens)
Construct: purchased Calbiochem
Sequence (Q05513 1-592): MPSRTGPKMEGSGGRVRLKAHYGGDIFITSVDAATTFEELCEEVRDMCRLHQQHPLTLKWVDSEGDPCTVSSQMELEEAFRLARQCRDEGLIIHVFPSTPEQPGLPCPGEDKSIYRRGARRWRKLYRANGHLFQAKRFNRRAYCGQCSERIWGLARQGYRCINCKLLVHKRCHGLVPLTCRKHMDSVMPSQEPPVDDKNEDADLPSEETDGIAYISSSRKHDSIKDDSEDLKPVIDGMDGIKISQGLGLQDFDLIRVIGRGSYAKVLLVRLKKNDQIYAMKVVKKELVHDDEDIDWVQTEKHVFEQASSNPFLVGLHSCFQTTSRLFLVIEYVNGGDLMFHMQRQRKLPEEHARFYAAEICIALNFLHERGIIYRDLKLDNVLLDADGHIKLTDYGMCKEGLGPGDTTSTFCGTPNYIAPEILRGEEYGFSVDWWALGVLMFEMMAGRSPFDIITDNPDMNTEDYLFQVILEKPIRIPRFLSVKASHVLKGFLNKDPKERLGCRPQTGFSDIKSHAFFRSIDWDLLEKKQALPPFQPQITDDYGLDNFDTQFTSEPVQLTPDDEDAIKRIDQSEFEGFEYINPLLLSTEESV
method-notes: In vitro kinase assay: peptide phosphorylation by PKC-zeta
Assay type: biochemical
assay-setup: normalized to best substrate
# PKC-zeta phosphorylation annotations

Below: 4 substances and their reported PKC-zeta phosphorylation.
substance	PKC-zeta phosphorylation
108 (KATTKKRTLRKNDRK) [compound 108]	1%
102 (AGSFKRNSIKKIV) [compound 102]	2%
111 (KKKRFSFKKSFKLSGFSFKK) [compound 111]	9%
85 (RFARKGSLRQKNV) [compound 85]	56%

As a next step, examine the substance that follows.
input: Determine its reported PKC-zeta phosphorylation: 77 (KKKKRASFKRKSSKKG) [compound 77]
output: 60%
